- Test Description: Cmax in dog at 3 mg/kg, po measured upto 24 hrs by LC-MS/MS analysis
- Type: ADME, organism-based, Canis lupus familiaris
- Design: time < 24 hrs, dose 3 mg/kg, route po
- Measurement Conditions: in vivo
Metric Name: Cmax (nM)
Expressed in nM, but write only the number.

Lab book: Cmax of N[C@H](CO)Cn1ccc(-c2ccc(Oc3ncc(-c4cc[nH]n4)cc3F)cc2)n1 noted as 1180

====

- Test Description: Volume of distribution at steady state in dog at 1 mg/kg, iv measured upto 24 hrs by LC-MS/MS analysis
- Format: ADME, organism-based, Canis lupus familiaris
- Measurement Conditions: in vivo, read-out: Vdss
Metric Name: Vd

Lab book: Vd of N[C@H](CO)Cn1ccc(-c2ccc(Oc3ncc(-c4cc[nH]n4)cc3F)cc2)n1 noted as 7 L/kg

The origin of these recorded values is ChEMBL document CHEMBL5375967.
